- tested-on: Human serotonin 5-HT7 (Homo sapiens)
- Sequence (P34969 whole entry): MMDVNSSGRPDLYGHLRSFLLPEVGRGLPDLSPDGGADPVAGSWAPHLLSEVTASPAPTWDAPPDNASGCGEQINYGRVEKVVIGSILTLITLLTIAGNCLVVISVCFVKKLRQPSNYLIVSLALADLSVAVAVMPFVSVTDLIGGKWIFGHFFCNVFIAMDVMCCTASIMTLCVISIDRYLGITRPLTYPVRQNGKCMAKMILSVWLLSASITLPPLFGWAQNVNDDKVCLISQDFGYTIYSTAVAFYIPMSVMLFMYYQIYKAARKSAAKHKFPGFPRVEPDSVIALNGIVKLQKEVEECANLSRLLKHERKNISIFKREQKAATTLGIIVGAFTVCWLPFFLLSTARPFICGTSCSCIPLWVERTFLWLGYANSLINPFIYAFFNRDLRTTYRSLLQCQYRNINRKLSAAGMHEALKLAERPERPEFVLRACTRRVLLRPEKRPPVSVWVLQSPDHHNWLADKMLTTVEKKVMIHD
observation-type: pKi
One number for each entry, as −log10 of the molar value.

Task: # get_value(readout='pKi', item= COCCOc1cc(CC2CCN(CCc3ccc4c(c3)C(=O)CCO4)CC2)ccc1Br.O=S(=O)(O)c1ccccc1 )
Output: 6.54

###

- tested-on: Human serotonin 5-HT2B (Homo sapiens, UniProt P41595)
- Sequence (P41595 whole entry): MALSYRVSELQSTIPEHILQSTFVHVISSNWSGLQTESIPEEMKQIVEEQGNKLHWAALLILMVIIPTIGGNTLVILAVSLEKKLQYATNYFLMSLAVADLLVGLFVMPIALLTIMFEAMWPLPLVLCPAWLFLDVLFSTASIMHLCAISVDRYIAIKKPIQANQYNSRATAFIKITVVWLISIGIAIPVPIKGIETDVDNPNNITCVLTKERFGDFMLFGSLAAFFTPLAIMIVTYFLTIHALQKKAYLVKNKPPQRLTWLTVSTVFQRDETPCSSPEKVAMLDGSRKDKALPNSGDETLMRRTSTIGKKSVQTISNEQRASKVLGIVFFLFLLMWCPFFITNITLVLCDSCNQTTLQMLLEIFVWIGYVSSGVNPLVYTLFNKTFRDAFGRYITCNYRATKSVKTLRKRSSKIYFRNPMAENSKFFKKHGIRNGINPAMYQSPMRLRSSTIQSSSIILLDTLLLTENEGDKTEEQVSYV
observation-type: pKi
Numbers only, as −log10 of the molar value.

Task: Reported pKi, compound COCCOc1cc(CC2CCN(CCc3ccc4c(c3)C(=O)CCO4)CC2)ccc1Br.O=S(=O)(O)c1ccccc1 : ____
Output: 6.93

###

- tested-on: rat serotonin transporter (Rattus norvegicus)
- Sequence (P31652 whole entry): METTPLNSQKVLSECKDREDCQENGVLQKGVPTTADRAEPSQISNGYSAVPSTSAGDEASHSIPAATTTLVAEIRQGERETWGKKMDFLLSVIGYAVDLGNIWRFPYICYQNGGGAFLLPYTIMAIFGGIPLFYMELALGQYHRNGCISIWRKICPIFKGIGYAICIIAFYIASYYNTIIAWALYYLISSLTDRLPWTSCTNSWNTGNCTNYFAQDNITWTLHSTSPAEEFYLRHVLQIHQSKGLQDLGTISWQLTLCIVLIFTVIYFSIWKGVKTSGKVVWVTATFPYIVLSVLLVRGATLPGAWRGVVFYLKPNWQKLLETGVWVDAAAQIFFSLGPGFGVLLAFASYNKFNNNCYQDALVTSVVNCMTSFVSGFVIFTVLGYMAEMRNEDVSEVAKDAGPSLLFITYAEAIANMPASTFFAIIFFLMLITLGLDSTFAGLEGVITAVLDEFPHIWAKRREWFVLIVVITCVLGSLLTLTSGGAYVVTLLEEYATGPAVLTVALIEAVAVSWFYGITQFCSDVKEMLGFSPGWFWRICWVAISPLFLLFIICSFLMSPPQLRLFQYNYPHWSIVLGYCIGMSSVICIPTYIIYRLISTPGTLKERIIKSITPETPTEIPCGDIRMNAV
- assay-method-text: Rat SERT binding, [3H]citalopram, rat cerebral cortex membranes
observation-type: Ki

Task: # input compound: COCCOc1cc(CC2CCN(CCc3ccc4c(c3)C(=O)CCO4)CC2)ccc1Br.O=S(=O)(O)c1ccccc1 ; wanted: its Ki
Output: 0.489 nM

Reference source: paper PMC4492758
